molecular target: CBL-B (Homo sapiens); construct: GST; assay: CBL-B TR-FRET IC50 screening (E1/E2 ubiquitination, Biotin-Ubiquitin, Anti GST-Tb donor / Streptavidin-d2 acceptor); type: biochemical; settings: CBL-B 10 nM final; 11-point titration from 100 uM; binned A-F; read-out: CBL-B TR-FRET activity IC50
Sequence (Q13191 whole entry): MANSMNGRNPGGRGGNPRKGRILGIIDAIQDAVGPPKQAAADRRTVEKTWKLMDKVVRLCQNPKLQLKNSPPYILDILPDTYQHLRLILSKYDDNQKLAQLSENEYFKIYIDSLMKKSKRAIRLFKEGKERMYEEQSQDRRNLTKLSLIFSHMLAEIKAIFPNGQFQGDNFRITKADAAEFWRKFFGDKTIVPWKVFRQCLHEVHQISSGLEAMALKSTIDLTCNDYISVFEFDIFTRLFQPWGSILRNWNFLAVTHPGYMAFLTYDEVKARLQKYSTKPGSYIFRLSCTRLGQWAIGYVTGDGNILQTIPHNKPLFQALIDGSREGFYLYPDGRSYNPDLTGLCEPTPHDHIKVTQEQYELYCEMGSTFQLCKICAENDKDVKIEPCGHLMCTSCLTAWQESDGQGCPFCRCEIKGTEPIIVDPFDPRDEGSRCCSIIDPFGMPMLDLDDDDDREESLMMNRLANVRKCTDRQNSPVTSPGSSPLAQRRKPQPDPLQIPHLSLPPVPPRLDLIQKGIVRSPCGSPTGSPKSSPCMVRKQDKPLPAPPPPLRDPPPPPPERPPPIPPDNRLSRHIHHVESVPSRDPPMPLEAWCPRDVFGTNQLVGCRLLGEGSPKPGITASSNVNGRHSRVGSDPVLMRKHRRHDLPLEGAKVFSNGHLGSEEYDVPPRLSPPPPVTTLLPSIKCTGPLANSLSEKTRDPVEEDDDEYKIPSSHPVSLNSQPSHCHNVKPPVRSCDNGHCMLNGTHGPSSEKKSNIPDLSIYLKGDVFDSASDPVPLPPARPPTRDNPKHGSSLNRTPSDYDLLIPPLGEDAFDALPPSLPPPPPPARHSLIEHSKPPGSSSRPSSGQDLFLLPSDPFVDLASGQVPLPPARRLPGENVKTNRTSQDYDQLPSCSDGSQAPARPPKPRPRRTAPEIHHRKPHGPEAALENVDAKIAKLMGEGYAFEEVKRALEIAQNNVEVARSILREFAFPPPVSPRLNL
pIC50: −log10 of the molar value.
Please respond with reported pIC50 for every item in the list.

{"columns": ["MOLECULE", "pIC50"],
 "data": [
  ["Cn1cnnc1CC1(c2cccc(-n3cc4c(C(F)(F)F)cc(CN5CCC(C)(F)CC5)cn4c3=O)c2)COC1 [Compound 11]", "> 7.00"],
  ["COCCNCc1cc(C(F)(F)F)c2cn(-c3cccc(C4(Cc5nncn5C)COC4)c3)c(=O)n2c1 [Compound 50]", "> 7.00"],
  ["C[C@H]1CCCN(Cc2cc(C(F)(F)F)c3cn(-c4cc(C#N)cc([C@H](c5nncn5C)C5CCC5)c4)c(=O)n3c2)C1 (single isomer, unassigned) [Compound 289]", "< 5.00"],
  ["C[C@@H]1CN(Cc2cc(C(F)(F)F)c3cn(-c4cccc(C5(Cc6nncn6C)COC5)c4)c(=O)n3c2)C[C@@H](C)O1 [Compound 201]", "> 7.00"]
]}

Each molecule below has a reported value. Please supply its pIC50.
1. Cn1cnnc1CC1(c2cccc(-n3cc4ccccn4c3=O)c2)COC1 [Compound 71]
2. C[C@H](c1cc(C(F)(F)F)c2cn(-c3cccc(C4(Cc5nncn5C)COC4)c3)c(=O)n2c1)N1CCC(F)CC1 [Compound 34]
3. Cn1cnnc1CC1(c2cccc(-n3cc4c(C(F)(F)F)cc(CN5CCC(O)CC5)cn4c3=O)c2)COC1 [Compound 53]
4. Cn1cnnc1C1(c2cccc(-n3cc4c(C(F)(F)F)cc(CN5CCC6(CC6)C5)cn4c3=O)c2)CC2(CC2)C1 [Compound 115]
5. Cc1cn(CCO)nc1[C@@H](c1cccc(-n2cc3c(C(F)(F)F)cc(CN4CCC[C@H](C)C4)cn3c2=O)c1)C1CCC1 (single isomer, unassigned) [Compound 360]

Return:
["6.52 to 7.00", "> 7.00", "> 7.00", "> 7.00", "< 5.00"]
